- Tested on: murine TTC39B mRNA
- method_notes: Dose-dependent antisense inhibition of murine TTC39B in mouse primary hepatocytes (Example 2)
- Assay type: cell-based
- measurement_conditions: 25 nM, cytofectin, ~16 h
- Method: Cells were plated at a density of 10,000 cells per well and transfected using cytofectin reagent with 25 nM, 50 nM, 100 nM, and 200 nM concentrations of antisense oligonucleotide, as specified in Table 3. After a treatment period of approximately 16 hours, RNA was isolated from the cells and TTC39B mRNA levels were measured by quantitative real-time PCR. […] TTC39B mRNA levels were adjusted according to total RNA content, as measured by RIBOGREEN®. […]
Oligonucleotides are written 5' to 3', each unit as a sugar letter and its base; * is a phosphorothioate linkage, no mark a phosphodiester; rarer units and linkages stand in square brackets, end groups in braces. Plain capitals give the bases only. e = 2'-O-(2-methoxyethyl) (MOE); [5mC] = 5-methylcytosine; d = 2'-deoxy (DNA)
endpoint: percent inhibition of TTC39B mRNA (%)
Answer with a number only, understood to be in %.

Example results:
GCCAATCTAAAAATGGCTCA (antisense eG*e[5mC]*e[5mC]*eA*eA*dT*d[5mC]*dT*dA*dA*dA*dA*dA*dT*dG*eG*e[5mC]*eT*e[5mC]*eA) [ISIS 447135] | 35
GTTGCCTTGGACCATTTACT (antisense eG*eT*eT*eG*e[5mC]*d[5mC]*dT*dT*dG*dG*dA*d[5mC]*d[5mC]*dA*dT*eT*eT*eA*e[5mC]*eT) [ISIS 447122] | 35
TGTCAGTGACAGTGGCAGCT (antisense eT*eG*eT*e[5mC]*eA*dG*dT*dG*dA*d[5mC]*dA*dG*dT*dG*dG*e[5mC]*eA*eG*e[5mC]*eT) [ISIS 447159] | 41

## Input Recorded percent inhibition of TTC39B mRNA of GGAGGTCCCCTGGCCACGGC (antisense eG*eG*eA*eG*eG*dT*d[5mC]*d[5mC]*d[5mC]*d[5mC]*dT*dG*dG*d[5mC]*d[5mC]*eA*e[5mC]*eG*eG*e[5mC]) [ISIS 447151] , please.
## Output 39

## Input Recorded percent inhibition of TTC39B mRNA of GGCACTCTTTATATATTTGG (antisense eG*eG*e[5mC]*eA*e[5mC]*dT*d[5mC]*dT*dT*dT*dA*dT*dA*dT*dA*eT*eT*eT*eG*eG) [ISIS 447111] , please.
## Output 30
